- measured on: T1, VTGW
- T1 chain: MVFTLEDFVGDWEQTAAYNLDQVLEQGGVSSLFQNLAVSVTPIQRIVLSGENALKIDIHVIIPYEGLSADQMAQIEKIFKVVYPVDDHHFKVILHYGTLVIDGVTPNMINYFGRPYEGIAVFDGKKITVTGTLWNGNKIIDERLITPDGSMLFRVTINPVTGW
- condition: modification not given
pKd: −log10 of the molar value.

| binder | pKd |
| --- | --- |
| NVSGWRLFKKISN [NLpep78] | 7.89 |
